targetDesc: actin.PsoS1
assayExplanation: ADP dissociation constant in the presence of phosphate (KADP+Pi) and calculated KPi app, psoas
Assay type: binding, rabbit
setupConditions: Psoas S1, pH 6.2, 30°C, 30 mM Pi; read-out: KADP+Pi
propertyMeasured: Kd

# smilesInput, propertyMeasured, recordedResult
records = [
    ("Nc1ncnc2c1ncn2[C@@H]1O[C@H](COP(=O)(O)OP(=O)(O)O)[C@@H](O)[C@H]1O", "Kd", "926 µM"),
]

* * *

targetDesc: actin.MassS1 (Bos taurus, UniProt Q9BE39)
Construct: from tissue; host or cells: bovine masseter muscle (myosin); rabbit muscle (actin)
assayExplanation: ADP dissociation constant in the presence of phosphate (KADP+Pi) and calculated KPi app, masseter
Assay type: binding, bovine
setupConditions: Masseter S1, pH 6.2, 30°C, 15 mM Pi

# smilesInput, targetDesc, Kd (µM)
data = [
    ("Nc1ncnc2c1ncn2[C@@H]1O[C@H](COP(=O)(O)OP(=O)(O)O)[C@@H](O)[C@H]1O", "actin.MassS1 (Bos taurus, UniProt Q9BE39)", 175),
]
